meta.source: patent US11098054B2

test system: HS 578T
MEASURE NAME: GI50 (nM)
Numeric only. Scale: nM

Write down the reported GI50 of C[C@@H]1CC[C@@H]2C1[C@H](OC(=O)/C=C/c1ccccc1)C1(C3CCCCC3)C[C@@H](NC(=O)CO)C2(C)O1 (stereo partly shown) [(Ia)] , test system: HS 578T.
2820

Same lookup for Cc1c(C(=O)O[C@H]2C3C(C)CC[C@H]3[C@]3(C)O[C@@]2(C2CCCCC2)C[C@H]3OC(=O)CO)ccc2ccccc12 (stereo partly shown) [(Ig)] , please.
17

Same lookup for C[C@@H]1CC[C@@H]2C1[C@H](OC(=O)/C=C/c1ccccc1)[C@]1(C3CCCCC3)C[C@@H](OC(=O)CO)[C@@]2(C)O1 (stereo partly shown) [(Ib)] , please.
24

Same lookup for CC1CC[C@@H]2C1[C@H](OC(=O)/C=C/C1CCCCC1)[C@]1(C3CCCCC3)C[C@@H](OC(=O)CO)[C@@]2(C)O1 (stereo partly shown) [(Id)] , please.
16

----------
test system: cancer cell lines within the NCI 60 cell assay
For each entry below, report its GI50 value.
Numeric only. Scale: µM

Any idea what its GI50 is? The molecule is CC1CC[C@@H]2C1[C@H](OC(=O)/C=C/C1CCCCC1)[C@]1(C3CCCCC3)C[C@@H](OC(=O)CO)[C@@]2(C)O1 (stereo partly shown)
2.55

Same lookup for C[C@@H]1CC[C@@H]2C1[C@H](OC(=O)/C=C/c1ccccc1)[C@]1(C3CCCCC3)C[C@@H](OC(=O)CO)[C@@]2(C)O1 (stereo partly shown) , please.
0.217

Same lookup for Cc1c(C(=O)O[C@H]2C3C(C)CC[C@H]3[C@]3(C)O[C@@]2(C2CCCCC2)C[C@H]3OC(=O)CO)ccc2ccccc12 (stereo partly shown) , please.
2.13

Same lookup for C[C@@H]1CC[C@@H]2C1[C@H](OC(=O)/C=C/c1ccccc1)C1(C3CCCCC3)C[C@@H](NC(=O)CO)C2(C)O1 (stereo partly shown) , please.
8.03

Same lookup for C[C@@H]1CC[C@@H]2C1[C@H](OC(=O)/C=C/c1ccccc1)[C@]1(c3ccccc3)C[C@@H](OC(=O)CO)[C@@]2(C)O1 (stereo partly shown) , please.
2.26

Same lookup for CC1CC[C@@H]2C1[C@H](OC(=O)c1ccc3ccccc3c1)[C@]1(C3CCCCC3)C[C@@H](OC(=O)CO)[C@@]2(C)O1 (stereo partly shown) , please.
1.25

Same lookup for C/C(=C\C(=O)O[C@H]1C2C(C)CC[C@H]2[C@]2(C)O[C@@]1(C1CCCCC1)C[C@H]2OC(=O)CO)c1ccccc1 (stereo partly shown) , please.
1.08

----------
test system: SN12C; assay: NCI 60-cell line protocol, SN12C (renal); assay type: cell-based; conditions: Homo sapiens, 48 h, two days drug exposure, SRB endpoint, read-out: GI-50 value
For each entry below, report its GI50 value.
Numeric only. Scale: nM

Any idea what its GI50 is? The compound is C/C(=C\C(=O)O[C@H]1C2C(C)CC[C@H]2[C@]2(C)O[C@@]1(C1CCCCC1)C[C@H]2OC(=O)CO)c1ccccc1 (stereo partly drawn)
23

Same lookup for C[C@@H]1CC[C@@H]2C1[C@H](OC(=O)/C=C/c1ccccc1)[C@]1(C3CCCCC3)C[C@@H](OC(=O)CO)[C@@]2(C)O1 (stereo partly drawn) , please.
85

Same lookup for C[C@@H]1CC[C@@H]2C1[C@H](OC(=O)/C=C/c1ccccc1)[C@]1(c3ccccc3)C[C@@H](OC(=O)CO)[C@@]2(C)O1 (stereo partly drawn) , please.
537

----------
The next entries give measured GI50 for SN12C.
Numeric only. Scale: nM

Any idea what its GI50 is? The molecule is C[C@@H]1CC[C@@H]2C1[C@H](OC(=O)/C=C/c1ccccc1)C1(C3CCCCC3)C[C@@H](NC(=O)CO)C2(C)O1 (stereo partly shown)
11500

Same lookup for CC1CC[C@@H]2C1[C@H](OC(=O)/C=C/C1CCCCC1)[C@]1(C3CCCCC3)C[C@@H](OC(=O)CO)[C@@]2(C)O1 (stereo partly shown) , please.
32

Same lookup for Cc1c(C(=O)O[C@H]2C3C(C)CC[C@H]3[C@]3(C)O[C@@]2(C2CCCCC2)C[C@H]3OC(=O)CO)ccc2ccccc12 (stereo partly shown) , please.
158

Same lookup for CC1CC[C@@H]2C1[C@H](OC(=O)c1ccc3ccccc3c1)[C@]1(C3CCCCC3)C[C@@H](OC(=O)CO)[C@@]2(C)O1 (stereo partly shown) , please.
52

----------
The next entries give measured log10 GI50 for RXF 393.
Response schema: value (number) is log10 of GI50 in units of nM.

Any idea what its log10 GI50 is? The compound is Cc1c(C(=O)O[C@H]2C3C(C)CC[C@H]3[C@]3(C)O[C@@]2(C2CCCCC2)C[C@H]3OC(=O)CO)ccc2ccccc12 (stereo partly shown) [(Ig)]
2.22

Same lookup for CC1CC[C@@H]2C1[C@H](OC(=O)c1ccc3ccccc3c1)[C@]1(C3CCCCC3)C[C@@H](OC(=O)CO)[C@@]2(C)O1 (stereo partly shown) [(If)] , please.
1.85

Same lookup for C[C@@H]1CC[C@@H]2C1[C@H](OC(=O)/C=C/c1ccccc1)[C@]1(C3CCCCC3)C[C@@H](OC(=O)CO)[C@@]2(C)O1 (stereo partly shown) [(Ib)] , please.
1.89

Same lookup for C/C(=C\C(=O)O[C@H]1C2C(C)CC[C@H]2[C@]2(C)O[C@@]1(C1CCCCC1)C[C@H]2OC(=O)CO)c1ccccc1 (stereo partly shown) [(Ie)] , please.
1.90

Same lookup for C[C@@H]1CC[C@@H]2C1[C@H](OC(=O)/C=C/c1ccccc1)[C@]1(c3ccccc3)C[C@@H](OC(=O)CO)[C@@]2(C)O1 (stereo partly shown) [(Ic)] , please.
2.40

Same lookup for CC1CC[C@@H]2C1[C@H](OC(=O)/C=C/C1CCCCC1)[C@]1(C3CCCCC3)C[C@@H](OC(=O)CO)[C@@]2(C)O1 (stereo partly shown) [(Id)] , please.
1.53

Same lookup for C[C@@H]1CC[C@@H]2C1[C@H](OC(=O)/C=C/c1ccccc1)C1(C3CCCCC3)C[C@@H](NC(=O)CO)C2(C)O1 (stereo partly shown) [(Ia)] , please.
3.52

----------
tested on: BT-549
For each entry below, report its log10 GI50 value.
Response schema: value (number) is log10 of GI50 in units of nM.

Write down the reported log10 GI50 of C/C(=C\C(=O)O[C@H]1C2C(C)CC[C@H]2[C@]2(C)O[C@@]1(C1CCCCC1)C[C@H]2OC(=O)CO)c1ccccc1 (stereo partly shown) , test system: BT-549.
2.08

Same lookup for CC1CC[C@@H]2C1[C@H](OC(=O)/C=C/C1CCCCC1)[C@]1(C3CCCCC3)C[C@@H](OC(=O)CO)[C@@]2(C)O1 (stereo partly shown) , please.
1.74

Same lookup for C[C@@H]1CC[C@@H]2C1[C@H](OC(=O)/C=C/c1ccccc1)[C@]1(c3ccccc3)C[C@@H](OC(=O)CO)[C@@]2(C)O1 (stereo partly shown) , please.
2.61

Same lookup for C[C@@H]1CC[C@@H]2C1[C@H](OC(=O)/C=C/c1ccccc1)[C@]1(C3CCCCC3)C[C@@H](OC(=O)CO)[C@@]2(C)O1 (stereo partly shown) , please.
1.53

Same lookup for Cc1c(C(=O)O[C@H]2C3C(C)CC[C@H]3[C@]3(C)O[C@@]2(C2CCCCC2)C[C@H]3OC(=O)CO)ccc2ccccc12 (stereo partly shown) , please.
3.72

Same lookup for C[C@@H]1CC[C@@H]2C1[C@H](OC(=O)/C=C/c1ccccc1)C1(C3CCCCC3)C[C@@H](NC(=O)CO)C2(C)O1 (stereo partly shown) , please.
4.12

Same lookup for CC1CC[C@@H]2C1[C@H](OC(=O)c1ccc3ccccc3c1)[C@]1(C3CCCCC3)C[C@@H](OC(=O)CO)[C@@]2(C)O1 (stereo partly shown) , please.
1.85
